Reported solubility thermodynamic values follow for various compounds
Assay: physchem
Conditions: buffer
READOUT: solubility thermodynamic (µM)

INSERT INTO results (record_smiles, result_value) VALUES
  ('CC(C)OC(=O)N1CCC(n2ncc3ccc(-c4cc(F)c(S(C)(=O)=O)cc4F)nc32)CC1', 15.9),
  ('COc1cc(NCc2cc3cc(C)c(C)cc3[nH]c2=O)ccc1-n1cnnn1', 0.04),
  ('CCn1nc(-c2cccc(Cl)c2)nc2c(=O)n(C)c(=O)nc1-2', 28.5);

---

Experiment: physchem
Conditions: buffer
compounds and their reported solubility thermodynamic
READOUT: solubility thermodynamic (µM)

INSERT INTO assay_data (record_smiles, unit_tag, result_value) VALUES
  ('CSc1nc(N)nc(-c2c(Cl)cc3c4c(cccc24)COC3)n1', 'µM', 29),
  ('O=c1cc(-c2ccc(Cc3ccc(OC(F)(F)F)cc3)cc2)[nH]c2ccccc12', 'µM', 30),
  ('COc1cc(NCc2cc3cc(Cl)ccc3[nH]c2=O)ccc1C#N', 'µM', 0.43),
  ('CC(C)c1nc(N2CCN(c3ncc(OCc4ccncc4C#N)cn3)CC2)no1', 'µM', 6);

Hey, just so you know, these numbers are from ChEMBL document CHEMBL5120754.
